# targetDesc: UniProt:P29275
# Sequence (whole entry): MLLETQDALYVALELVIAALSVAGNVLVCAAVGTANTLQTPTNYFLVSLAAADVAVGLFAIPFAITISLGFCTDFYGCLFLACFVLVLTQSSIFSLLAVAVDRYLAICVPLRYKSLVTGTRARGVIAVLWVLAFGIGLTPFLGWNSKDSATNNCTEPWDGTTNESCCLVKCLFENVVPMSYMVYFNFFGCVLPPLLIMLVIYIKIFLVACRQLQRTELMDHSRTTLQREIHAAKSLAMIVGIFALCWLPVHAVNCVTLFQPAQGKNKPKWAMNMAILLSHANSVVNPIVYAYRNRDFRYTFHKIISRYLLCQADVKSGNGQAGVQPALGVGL
# protocolSummary: Displacement of [3H]-MRS-1754 from human adenosine A2B receptor expressed in HEK293 cell membranes at 1 uM measured after 90 mins relative to control
Quick reference: inhibition of the listed items.
Give just the number in %; leave the unit off.

Before answering, review these 10 worked examples.
mol=COc1cnc(N2CCOCC2)c2sc(NC(=O)C(C)(C)Oc3ccc(F)cc3F)nc12 targetdesc=UniProt:P29275 measvalue=11
mol=COc1ccc(N2CCOCC2)c2sc(NC(=O)C(C)(C)Oc3ccc(F)cc3)nc12 targetdesc=UniProt:P29275 measvalue=0
mol=COc1ccc(N2CCOCC2)c2sc(NC(=O)C(C)(C)Oc3cccc(F)c3)nc12 targetdesc=UniProt:P29275 measvalue=36
mol=COc1cnc(N2CCOCC2)c2sc(NC(=O)C(C)(C)Oc3ccc(F)c(F)c3)nc12 targetdesc=UniProt:P29275 measvalue=42
mol=COc1ccc(N2CCOCC2)c2sc(NC(=O)C(C)(C)Oc3c(F)cccc3F)nc12 targetdesc=UniProt:P29275 measvalue=19
mol=COc1ccc(N2CCOCC2)c2sc(NC(=O)C(C)(C)Oc3ccc(F)cc3F)nc12 targetdesc=UniProt:P29275 measvalue=0
mol=COCCOc1cccc(OC(C)(C)C(=O)Nc2nc3c(OC)ccc(N4CCOCC4)c3s2)c1 targetdesc=UniProt:P29275 measvalue=38
mol=COc1cnc(N2CCOCC2)c2sc(NC(=O)C(C)(C)Oc3c(F)cccc3F)nc12 targetdesc=UniProt:P29275 measvalue=42
mol=COc1ccc(N2CCOCC2)c2sc(NC(=O)C(C)(C)Oc3ccc4c(c3)OCO4)nc12 targetdesc=UniProt:P29275 measvalue=0
mol=COc1cnc(N2CCOCC2)c2sc(NC(=O)C(C)(C)Oc3ccc(F)cc3)nc12 targetdesc=UniProt:P29275 measvalue=24

Missing value: inhibition, UniProt:P29275, entry COCCOc1cccc(OC(C)(C)C(=O)Nc2nc3c(OC)cnc(N4CCOCC4)c3s2)c1 . Fill in?
23

Missing value: inhibition, UniProt:P29275, entry COc1ccc(N2CCOCC2)c2sc(NC(=O)C(C)(C)Oc3ccc(C)cc3)nc12 . Fill in?
14

Missing value: inhibition, UniProt:P29275, entry COc1cnc(N2CCOCC2)c2sc(NC(=O)C(C)(C)Oc3cccc(F)c3)nc12 . Fill in?
42

Missing value: inhibition, UniProt:P29275, entry COc1ccc(N2CCOCC2)c2sc(NC(=O)C(C)(C)Oc3ccc(F)c(F)c3)nc12 . Fill in?
34

Missing value: inhibition, UniProt:P29275, entry COc1ccc(OC(C)(C)C(=O)Nc2nc3c(OC)ccc(N4CCOCC4)c3s2)cc1OC . Fill in?
25
